- measurementTarget: Human BCL-XL protein (N-terminal HiBiT tagged BCL-XL in HT1080 cells) (Homo sapiens, UniProt Q07817)
- Construct: expressed in transfected cells; host or cells: HT-1080 (ATCC CCL-121), stably transduced with lentivirus pLV-UBC-N-HiBiT-BCL-XL-PGK-puro and selected with puromycin
- Sequence (Q07817 whole entry): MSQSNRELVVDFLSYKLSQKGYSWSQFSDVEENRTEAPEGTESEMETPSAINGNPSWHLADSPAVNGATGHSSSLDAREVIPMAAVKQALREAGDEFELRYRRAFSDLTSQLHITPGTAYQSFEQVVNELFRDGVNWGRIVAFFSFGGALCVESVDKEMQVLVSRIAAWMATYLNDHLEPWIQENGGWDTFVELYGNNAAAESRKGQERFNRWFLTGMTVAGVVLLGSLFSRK
- runDescription: HiBiT based degradation assay
- Assay type: cell-based
- runConditions: BCL-XL degradation; HT1080 cells expressing HiBiT-BCL-XL; 24 h; read-out: EC50 (24 h)
valueKind: DC50

>  <compound>
Cc1c(OCCCC[C@H]2CCCN(CC(=O)Nc3cccc4c(C5CCC(=O)NC5=O)nn(C)c34)C2)cccc1-c1ccc(N2CCc3cccc(C(=O)Nc4nc5ccccc5s4)c3C2)nc1C(=O)O (stereo partly shown) [Compound 186b]

>  <result>
1000 to 10000 nM

$$$$
>  <compound>
Cc1cc(OCCCN2C[C@@H](C)N(CC(=O)N3CCN(c4ccc5c(C6CCC(=O)NC6=O)nn(C)c5c4)CC3)[C@@H](C)C2)ccc1-c1ccc(N2CCc3cccc(C(=O)Nc4nc5ccccc5s4)c3C2)nc1C(=O)O (stereo partly shown) [Compound 154a]

>  <result>
< 100 nM

$$$$
>  <compound>
Cc1c(O[C@H]2CC[C@H](CCC[C@@H](C)N3CCN(c4ccc5c(C6CCC(=O)NC6=O)nn(C)c5c4)CC3)CC2)cccc1-c1ccc(N2CCc3cccc(C(=O)Nc4nc5ccccc5s4)c3C2)nc1C(=O)O (single isomer, unassigned) [Compound 333b]

>  <result>
< 100 nM

$$$$
>  <compound>
Cc1c(OCCCCC2CCN(CC3CCN(c4cccc5c(C6CCC(=O)NC6=O)nn(C)c45)CC3)CC2)cccc1-c1ccc(N2CCc3cccc(C(=O)Nc4nc5ccccc5s4)c3C2)nc1C(=O)O (stereo not shown)

>  <result>
< 100 nM

$$$$

* * *

- measurementTarget: Human BCL-XL protein (N-terminal HiBiT tagged BCL-XL in HT1080 cells) (Homo sapiens, UniProt Q07817)
- Construct: expressed in transfected cells; host or cells: HT-1080 (ATCC CCL-121), stably transduced with lentivirus pLV-UBC-N-HiBiT-BCL-XL-PGK-puro and selected with puromycin
- runDescription: HiBiT based degradation assay
- Type: cell-based
- runConditions: BCL-XL degradation normalized with DMSO control; HT1080 cells expressing HiBiT-BCL-XL; 24 h
- Method: Human BCL-XL protein coding open reading frame fused with N-terminal HiBiT coding sequence was synthesized from Integrated DNA Technologies (IDT). […] HT1080 cells expressing N-terminal HiBiT tagged BCL-XL were dispensed into a 384-well plate pre-spotted with compounds at varying concentrations. […] After incubation, luminescence was read on a PHERAstar FSX Plate Reader (BMG). […]
valueKind: Ymin (24 h)

>  <compound>
Cc1c(O[C@H]2CC[C@H](CCCN3CCN(c4ccc5c(C6CCC(=O)NC6=O)nn(C)c5c4)C(C)(C)C3)CC2)cccc1-c1ccc(N2CCc3cccc(C(=O)Nc4nc5ccccc5s4)c3C2)nc1C(=O)O (stereo partly shown) [Compound 318a]

>  <result>
A (Ymin < 50%)

$$$$
>  <compound>
Cc1c(OCCC[C@@H]2CCN(CC(=O)Nc3cccc4c(C5CCC(=O)NC5=O)nn(C)c34)C2)cccc1-c1ccc(N2CCc3cccc(C(=O)Nc4nc5ccccc5s4)c3C2)nc1C(=O)O (stereo partly shown) [Compound 240a]

>  <result>
B (50% ≤ Ymin < 70%)

$$$$
>  <compound>
Cc1c(OCCCCC2CCN(CC(=O)Nc3ccc4c(C5CCC(=O)NC5=O)nn(C)c4c3)CC2)cccc1-c1ccc(N2CCc3cccc(C(=O)Nc4nc5ccccc5s4)c3C2)nc1C(=O)O (stereo not shown) [Compound 203]

>  <result>
A (Ymin < 50%)

$$$$
>  <compound>
Cc1c(Oc2ccc(CCCCN3CCN(c4cccc5c(C6CCC(=O)NC6=O)nn(C)c45)CC3)cc2)cccc1-c1ccc(N2CCc3cccc(C(=O)Nc4nc5ccccc5s4)c3C2)nc1C(=O)O (stereo not shown) [Compound 175]

>  <result>
B (50% ≤ Ymin < 70%)

$$$$
>  <compound>
Cc1c(OCC(F)(F)CN2C[C@@H](C)N(CC(=O)N3CCN(c4ccc5c(C6CCC(=O)NC6=O)nn(C)c5c4)CC3)[C@@H](C)C2)cccc1-c1ccc(N2CCc3cccc(C(=O)Nc4nc5ccccc5s4)c3C2)nc1C(=O)O (stereo partly shown) [Compound 185a]

>  <result>
A (Ymin < 50%)

$$$$
>  <compound>
Cc1c(OCC2CC3(CCN(CCN4CCN(c5cccc6c(C7CCC(=O)NC7=O)nn(C)c56)CC4)CC3)C2)cccc1-c1ccc(N2CCc3cccc(C(=O)Nc4nc5ccccc5s4)c3C2)nc1C(=O)O (stereo not shown) [Compound 188]

>  <result>
A (Ymin < 50%)

$$$$
>  <compound>
Cc1c(OCCCN2CCC(CC(=O)Nc3ccc4c(C5CCC(=O)NC5=O)nn(C)c4c3)CC2)cccc1-c1ccc(N2CCc3cccc(C(=O)Nc4nc5ccccc5s4)c3C2)nc1C(=O)O (stereo not shown) [Compound 120]

>  <result>
B (50% ≤ Ymin < 70%)

$$$$
>  <compound>
Cc1c(O[C@H]2CC[C@H](CC(=O)N3CCN(c4cccc5c(C6CCC(=O)NC6=O)nn(C)c45)CC3)CC2)cccc1-c1ccc(N2CCc3cccc(C(=O)Nc4nc5ccccc5s4)c3C2)nc1C(=O)O (stereo partly shown) [Compound 182a]

>  <result>
B (50% ≤ Ymin < 70%)

$$$$
>  <compound>
Cc1cc(OCCCN2CCN(CC(=O)N3CCN(c4cccc5c(C6CCC(=O)NC6=O)nn(C)c45)CC3)CC2)ccc1-c1ccc(N2CCc3cccc(C(=O)Nc4nc5ccccc5s4)c3C2)nc1C(=O)O (stereo not shown) [Compound 152]

>  <result>
A (Ymin < 50%)

$$$$
>  <compound>
Cc1c(O[C@H]2CC[C@H](CCCCN3CCC(c4ccc5c(C6CCC(=O)NC6=O)nn(C)c5c4)CC3)CC2)cccc1-c1ccc(N2CCc3cccc(C(=O)Nc4nc5ccccc5s4)c3C2)nc1C(=O)O (stereo partly shown) [Compound 299a]

>  <result>
A (Ymin < 50%)

$$$$
